All figures here come from patent USRE37781E1.

Molecular target: single-chain tethered dimer of HIV protease (Human immunodeficiency virus 1, UniProt P04585)
Assay: biochemical
Type: biochemical
Set-up: fused on or other part: A second copy of the same protease unit is joined to the first by a short peptide tether, giving one polypeptide
Conditions: read-out: HPLC K1; Table 2d; class symbols
quantity: Ki

Consider the following illustrative entries.
O=C1N(Cc2cccnc2Cl)C(Cc2ccccc2)C(O)C(O)C(Cc2ccccc2)N1Cc1cccnc1Cl (centres unmarked) [Example 14A] | 10 to 1000 nM
O=C1N(CCCCCO)C(Cc2ccccc2)C(O)C(O)C(Cc2ccccc2)N1Cc1cccc(O)c1 (centres unmarked) [Example 15VR] | < 10 nM
O=C1N(Cc2ccc(C(O)CO)cc2)C(Cc2ccccc2)C(O)C(O)C(Cc2ccccc2)N1Cc1ccc(C(O)CO)cc1 (centres unmarked) [11L] | < 10 nM

I would be grateful if you could share the reported Ki for O=C1NC(Cc2ccccc2)C(O)C(O)C(Cc2ccccc2)N1Cc1ccc(CO)cc1 (centres unmarked) [Example 11N] . < 10 nM

Next entry: O=C1N(Cc2cccc(C=NOCc3ccccc3)c2)C(Cc2ccccc2)C(O)C(O)C(Cc2ccccc2)N1Cc1cccc(C=NOCc2ccccc2)c1 (centres unmarked) 10 to 1000 nM

Next entry: O=C1N(CCCCCO)C(Cc2ccccc2)C(O)C(O)C(Cc2ccccc2)N1CC1CC1 (centres unmarked) [Example 15VU] < 10 nM

Next entry: CON=Cc1cccc(CN2C(=O)N(Cc3cccc(C=NOC)c3)C(Cc3ccccc3)C(O)C(O)C2Cc2ccccc2)c1 (centres unmarked) [10D] 10 to 1000 nM

Next entry: CNC(=O)Oc1cccc(CN2C(=O)N(Cc3cccc(OC(=O)NC)c3)C(Cc3ccccc3)C(O)C(O)C2Cc2ccccc2)c1 (centres unmarked) 10 to 1000 nM

Next entry: O=C1NC(Cc2ccccc2)C(O)C(O)C(Cc2ccccc2)N1Cc1cccc(O)c1 (centres unmarked) [10I] < 10 nM

Next entry: O=C1N(Cc2cccc(-c3nnn[nH]3)c2)C(Cc2ccccc2)C(O)C(O)C(Cc2ccccc2)N1CC1CC1 (centres unmarked) < 10 nM

Next entry: O=C1N(Cc2cccc(Br)c2)C(Cc2ccccc2)C(O)C(O)C(Cc2ccccc2)N1Cc1cccc(C#CCO)c1 (centres unmarked) 10 to 1000 nM

###

Counter-ions that a name gives are not always drawn.
quantity: melting point

CC(C)=CCN1C(=O)N(Cc2ccccc2)C(Cc2ccccc2)C(O)C(O)C1Cc1ccccc1 (centres unmarked) | 173 to 174 °C
N#CN=C1N(Cc2cccc([N+](=O)[O-])c2)[C@H](Cc2ccccc2)[C@H](O)[C@@H](O)[C@@H](Cc2ccccc2)N1Cc1cccc([N+](=O)[O-])c1 | 114 °C

I would be grateful if you could share the reported melting point for O=C1N(Cc2ccc(O)c(O)c2)C(Cc2ccccc2)C(O)C(O)C(Cc2ccccc2)N1CC1CC1 (centres unmarked) [15AG] . 141 °C

Next entry: CCCCCCCN1C(=O)N(CCCCCCC)C(Cc2ccccc2)C(O)C(O)C1Cc1ccccc1 (centres unmarked) 100 to 101 °C

Next entry: N#CN=C1N(Cc2cccc(O)c2)C(Cc2ccccc2)C(O)C(O)C(Cc2ccccc2)N1Cc1cccc(O)c1 (centres unmarked) 124 °C

Next entry: O=C1NC(Cc2ccccc2)C(O)C(O)C(Cc2ccccc2)N1Cc1ccc(F)cc1 (centres unmarked) 188.9 °C

Next entry: O=C1N(Cc2cccc(-c3ncc[nH]3)c2)C(Cc2ccccc2)C(O)C(O)C(Cc2ccccc2)N1Cc1cccc(-c2ncc[nH]2)c1 (centres unmarked) (as salt: hydrochloride) [Example 15BS] 191 to 194 °C

Next entry: O=Cc1cccc(CN2C(=O)N(Cc3cccc(C=O)c3)C(Cc3ccccc3)C(O)C(O)C2Cc2ccccc2)c1 (centres unmarked) 175 to 176 °C

Next entry: O=C1N(Cc2ccc(CO)cc2)C(Cc2ccccc2)C(O)C(O)C(Cc2ccccc2)N1Cc1cccc(O)c1 (centres unmarked) [10o] 141 to 144 °C

###

pKi overview
Target: single-chain tethered dimer of HIV protease (Human immunodeficiency virus 1)
Assay: biochemical
Type: biochemical
pKi: −log10 of the molar value.

O=C1N(Cc2ccc(-c3ccccc3)cc2)C(Cc2ccccc2)C(O)C(O)C(Cc2ccccc2)N1Cc1ccc(-c2ccccc2)cc1 (stereo not shown) [Example 4R] | 6.00 to 8.00
C=CCN1C(=O)N(Cc2ccc3ccccc3c2)C(Cc2ccccc2)C(O)C(O)C1Cc1ccccc1 (stereo not shown) [Example 4S] | > 8.00
CCCCN1C(=O)N(Cc2ccc3ccccc3c2)C(Cc2ccccc2)C(O)C(O)C1Cc1ccccc1 (stereo not shown) [Example 4U] | > 8.00
O=C1NC(Cc2ccccc2)C(O)C(O)C(Cc2ccccc2)N1Cc1ccc(F)cc1 (stereo not shown) [Example 6ZF] | > 8.00
NCc1cccc(CN2C(=O)N(Cc3cccc(CN)c3)C(Cc3ccccc3)C(O)C(O)C2Cc2ccccc2)c1 (stereo not shown) [Example 6ZK] | 6.00 to 8.00
O=C1[C@@H](Cc2ccccc2)C[C@@H](O)[C@@H](Cc2ccccc2)N1Cc1ccccc1 [Example 25A] | < 6.00

We next turn to a different molecule, shown below.
I would be grateful if you could share the reported pKi for O=C1N(Cc2ccc(F)cc2)C(Cc2ccccc2)C(O)C(O)C(Cc2ccccc2)N1Cc1ccc2ccccc2c1 (stereo not shown) [Example 5Q] . > 8.00

###

Ki overview
Biological target: single-chain tethered dimer of HIV protease (Human immunodeficiency virus 1, UniProt P04585)
Assay: biochemical
Format: biochemical
Parameters: fused on or other part: A second copy of the same protease unit is joined to the first by a short peptide tether, giving one polypeptide
Conditions: Table 2i; read-out: HPLC Ki
Description: HIV Protease Inhibition Assay—HPLC Method […] HPLC measurement of product formation: The product (aminobenzoyl-Ala-Thr-His-Gln-Val-Tyr) was separated from substrate on a Pharmacia MonoQ anion exchange column. […] Detection with a Shimadzu model RF535 fluorescence monitor was at 330 nm (excitation) and 430 (emission).

Consider the following illustrative entries.
O=C1N(Cc2cccc(CO)c2)C(Cc2ccc(F)cc2)C(O)C(O)C(Cc2ccc(F)cc2)N1Cc1cccc(CO)c1 (stereo not drawn) [20T] | < 10 nM
COc1ccc(CC2C(O)C(O)C(Cc3ccc(OC)cc3)N(Cc3ccc4ccccc4c3)C(=O)N2Cc2ccc3ccccc3c2)cc1 (stereo not drawn) [20AH] | < 10 nM
NC(=O)c1cccc(CN2C(=O)N(Cc3cccc(C(N)=O)c3)C(Cc3ccc(F)cc3)C(O)C(O)C2Cc2ccc(F)cc2)c1 (stereo not drawn) [20L] | < 10 nM
O=C1N(Cc2cccc(O)c2)C(Cc2cccc(O)c2)C(O)C(O)C(Cc2cccc(O)c2)N1Cc1cccc(O)c1 (stereo not drawn) [20AQ] | < 10 nM
COc1ccc(CC2C(O)C(O)C(Cc3ccc(OC)cc3)N(Cc3ccc(CO)cc3)C(=O)N2Cc2ccc(CO)cc2)cc1 (stereo not drawn) [20AJ] | < 10 nM
COC(=O)c1cccc(CN2C(=O)N(Cc3cccc(C(=O)OC)c3)C(Cc3ccc(F)c(F)c3)C(O)C(O)C2Cc2ccc(F)c(F)c2)c1 (stereo not drawn) [20Y] | < 10 nM
COc1cccc(CC2C(O)C(O)C(Cc3cccc(OC)c3)N(Cc3ccccc3)C(=O)N2Cc2ccccc2)c1 (stereo not drawn) [Example 20W] | < 10 nM
CCOC(=O)COc1cccc(CC2C(O)C(O)C(Cc3cccc(OCC(=O)OCC)c3)N(CC3CC3)C(=O)N2CC2CC2)c1 (stereo not drawn) [20AV] | 10 to 1000 nM

I would be grateful if you could share the reported Ki for O=C1N(Cc2ccccc2)[C@H](Cc2ccc(O)cc2)[C@H](O)[C@@H](O)[C@@H](Cc2ccc(O)cc2)N1Cc1ccccc1 [20AK] . < 10 nM

Next entry: CCCCN1C(=O)N(CCCC)C(Cc2ccccc2[N+](=O)[O-])C(O)C(O)C1Cc1ccc([N+](=O)[O-])cc1 (stereo not drawn) [20C] < 10 nM

Next entry: NC(=O)c1cccc(CN2C(=O)N(Cc3cccc(C(N)=O)c3)C(Cc3ccc(F)c(F)c3)C(O)C(O)C2Cc2ccc(F)c(F)c2)c1 (stereo not drawn) [20AC] < 10 nM

Next entry: O=C1N(Cc2ccccc2)C(Cc2ccc(OCCO)cc2)C(O)C(O)C(Cc2ccc(OCCO)cc2)N1Cc1ccccc1 (stereo not drawn) [20AM] < 10 nM

Next entry: CC(O)c1ccc(CN2C(=O)N(Cc3ccc(C(C)O)cc3)C(Cc3ccccc3)C(O)C(O)C2Cc2ccccc2)cc1 (stereo not drawn) [20M] < 10 nM

Next entry: COC(=O)c1ccc(CN2C(=O)N(Cc3ccc(C(=O)OC)cc3)C(Cc3ccc(OC)cc3)C(O)C(O)C2Cc2ccc(OC)cc2)cc1 (stereo not drawn) [20AI] > 1000 nM

Next entry: O=C1N(Cc2cccc(CO)c2)C(Cc2ccc(F)c(F)c2)C(O)C(O)C(Cc2ccc(F)c(F)c2)N1Cc1cccc(CO)c1 (stereo not drawn) [20AA] < 10 nM

Next entry: CC(=O)c1ccc(CN2C(=O)N(Cc3ccc(C(C)=O)cc3)C(Cc3ccccc3)C(O)C(O)C2Cc2ccccc2)cc1 (stereo not drawn) [20J] 10 to 1000 nM

Next entry: COc1cccc(CC2C(O)C(O)C(Cc3cccc(OC)c3)N(CC3CC3)C(=O)N2CC2CC2)c1 (stereo not drawn) [20AS] < 10 nM

Next entry: COc1ccc(CC2C(O)C(O)C(Cc3ccc(OC)cc3)N(CC3CC3)C(=O)N2CC2CC2)cc1 (stereo not drawn) [20AF] < 10 nM

Next entry: C=CCN1C(=O)N(CC=C)C(Cc2ccc(OC)cc2)C(O)C(O)C1Cc1ccc(OC)cc1 (stereo not drawn) [20AL] < 10 nM

Next entry: CC(=O)c1cccc(CN2C(=O)N(Cc3cccc(C(C)=O)c3)C(Cc3ccc(F)cc3)C(O)C(O)C2Cc2ccc(F)cc2)c1 (stereo not drawn) [20N] < 10 nM

Next entry: COC(=O)c1ccc(CN2C(=O)N(Cc3ccc(C(=O)OC)cc3)C(Cc3ccc(F)c(F)c3)C(O)C(O)C2Cc2ccc(F)c(F)c2)cc1 (stereo not drawn) [20Z] 10 to 1000 nM
